Test system: UO-31 renal
experiment-notes: NCI-60 one-dose screen, 48 h (100 = growth as untreated, 0 = no growth, -100 = all killed)
protocol-conditions: 10 µM unless noted
Protocol: Growth inhibition of the UO-31 human tumor cell line is measured as a screen for anti-cancer activity. Cells are grown in 96 well plates and exposed to the test compound for 48 hours. Compounds are tested at a single concentration, which is 10^-5 M for most compounds. The reported endpoint is percent growth (GI% or GIPRCNT), where numbers from 0 - 100% represent growth inhibition, and numbers from -100% - 0 represent cell death. For example, a value of 40 represents 60% growth inhibition. […]
Compounds without any hit were thinned out: in the full panel of roughly 83,000, 20% have a hit.
The compounds listed here are annotated with their growth.

{"chemical-smiles": "COc1cc2c(Nc3ccc(Br)cc3F)ncnc2cc1OCC1CCN(C)CC1", "assayed-target": "UO-31 renal", "growth (%)": -88.3}
{"chemical-smiles": "N#Cc1cc2[nH]c3ccc(OC(F)(F)F)cc3c2oc1=O", "assayed-target": "UO-31 renal", "growth (%)": 59.1}
{"chemical-smiles": "COc1ccc2c(c1OC)C(=O)O[C@@H]2[C@H]1c2c(c(C#CC#Cc3ccc(F)c(F)c3)c3c(c2OC)OCO3)CCN1C", "assayed-target": "UO-31 renal", "growth (%)": 70.5}
{"chemical-smiles": "CCN1CCN(Cc2ccc(NC(=O)Nc3nc(-c4cc(OC)c(OC)c(OC)c4)cs3)cc2C(F)(F)F)CC1", "assayed-target": "UO-31 renal", "growth (%)": 53.2}
{"chemical-smiles": "CO[C@@H](C)Cn1c(=O)n(C)c2cnc3ccc(-c4cncc(C(C)(C)O)c4)cc3c21", "assayed-target": "UO-31 renal", "growth (%)": -18.6}

---

Test system: T-47D breast
experiment-notes: NCI-60 one-dose screen, 48 h (100 = growth as untreated, 0 = no growth, -100 = all killed)
protocol-conditions: 10 µM unless noted
About 83,000 compounds went through this panel and 20% of them were active in at least one assay; those are over-represented in the sample as a whole.
# growth >= 60% gives satisfied, anything below gives not satisfied

{"molecule": "CCS(=O)(=O)N1CCN(c2ccc(Nc3ncc(C(N)=O)c(NC4CC4)n3)cc2)CC1", "label-class": "satisfied"}
{"molecule": "CCn1cc(-c2ccnc3[nH]c(-c4cccc(CN(C)C)c4)cc23)c(-c2ccc(NC(=O)N(C)C)cc2)n1", "label-class": "not satisfied"}
{"molecule": "O=C(COc1cccc(/C=C2\\Cc3ccc(Cl)cc3C2=O)c1)Nc1nccs1", "label-class": "not satisfied"}
{"molecule": "c1cn2cc(-c3ccc4cn[nH]c4c3)nc(Nc3ccc(N4CCOCC4)cc3)c2n1", "label-class": "not satisfied"}
{"molecule": "Cn1cc(-c2ncnc3ccc(-c4cnc(Cl)c(NS(C)(=O)=O)c4)cc23)c2ccccc21", "label-class": "not satisfied"}
{"molecule": "COc1cccc(Nc2ncnn3ccc(CN4CC[C@@H](N)[C@H](O)C4)c23)c1", "label-class": "not satisfied"}
{"molecule": "Cc1cc(Nc2nc(N[C@@H](C)c3ncc(F)cn3)ncc2Cl)n[nH]1", "label-class": "satisfied"}
{"molecule": "O=C(NOCCO)c1ccc2cncn2c1Nc1ccc(I)cc1F", "label-class": "satisfied"}
{"molecule": "CC(C)C1CCC(C)C(C2(C#N)C(N)=NC(N)=C2C#N)C1=O (stereo not given)", "label-class": "satisfied"}
{"molecule": "CNC(=O)c1ccccc1Nc1nc(Nc2ccc3c(c2OC)CCC[C@H](N2CCN(CCO)CC2)C3)ncc1Cl", "label-class": "not satisfied"}
{"molecule": "CCc1cc2c(cc1N1CCC(N3CCOCC3)CC1)C(C)(C)c1[nH]c3cc(C#N)ccc3c1C2=O", "label-class": "not satisfied"}
{"molecule": "FC(F)(F)c1ccc(CNc2ccc(Cc3c[nH]c4ncc(Cl)cc34)cn2)cn1", "label-class": "not satisfied"}
{"molecule": "Nc1c(C(=O)c2ccccc2)sc2nc(-c3cccs3)ccc12", "label-class": "not satisfied"}
{"molecule": "CCc1nc2ccc(Cc3ccc(C(=O)NO)cc3)cc2c(=O)n1CCc1ccccc1", "label-class": "not satisfied"}
{"molecule": "COc1ccc(-c2nc(N)ncc2Oc2ccccc2OC)c(O)c1", "label-class": "not satisfied"}
{"molecule": "CN1CCN(c2ccc(OC(F)(F)F)c(Nc3ncc4c(n3)-c3c(c(C(N)=O)nn3CCO)CC4)c2)CC1", "label-class": "not satisfied"}
{"molecule": "COc1ccc(-c2cnc(-c3ccc(Cl)cc3)[nH]2)cc1OC", "label-class": "satisfied"}
{"molecule": "O=C(O)c1ccc2c(c1)nc(Nc1cccc(Cl)c1)c1ccncc12", "label-class": "not satisfied"}
{"molecule": "C[C@H]1Oc2cc(cnc2N)-c2c(nn(C)c2C#N)CN(C)C(=O)c2ccc(F)cc21", "label-class": "satisfied"}
{"molecule": "CCN(CC)CCOc1ccc(/C(=C(\\C)c2ccc(Cl)cc2)c2ccc(Cl)cc2)cc1", "label-class": "not satisfied"}
